Values from patent US8519184B2

- assay-remarks: Extractant state of reaction product
- Assay type: physicochemical
- run-conditions: Table 2; reaction product at varied B/A (dioctylamine/diglycolic anhydride)
test-readout: Extractant state

In [3]: df
Out[3]:
                                   compound      test_readout  recorded_result
0  CCCCCCCCN(CCCCCCCC)C(=O)COCC(=O)O [Comparative Example 2, N,N-dioctyl-3-oxapentane-1,5-amic acid]  Extractant state           liquid
1  CCCCCCCCN(CCCCCCCC)C(=O)COCC(=O)O [Example 3, N,N-dioctyl-3-oxapentane-1,5-amic acid]  Extractant state           liquid
2  CCCCCCCCN(CCCCCCCC)C(=O)COCC(=O)O [Example 5, N,N-dioctyl-3-oxapentane-1,5-amic acid]  Extractant state            solid
3  CCCCCCCCN(CCCCCCCC)C(=O)COCC(=O)O [Example 4, N,N-dioctyl-3-oxapentane-1,5-amic acid]  Extractant state           liquid
4  CCCCCCCCN(CCCCCCCC)C(=O)COCC(=O)O [Example 2, N,N-dioctyl-3-oxapentane-1,5-amic acid]  Extractant state           liquid
